- measurement notes: qHTS assay for MDR1-selective chemotherapeutics: Primary screen using the drug-selected MDR subline cells KB-V1; note: nearly all actives have a fitted effect of over 60% in size
- assay setup: KB-V1 MDR cells viability, CellTiter-Glo, 72 h; series mostly up to 46.1 µM
Hit rate of the full screen: of about 400,000 compounds, about 13,000 (3.2%) were called active. About 18% were inconclusive and are not listed. Calls come from the whole dose curve; as a rule, active = well fitted cell-killing curve with a large enough effect; inconclusive = small, poorly fitted or top-dose-only effect, or effect the other way; inactive = flat fitted curve, though single readings scatter. The sample as a whole holds a higher share of actives than the screen did.
Write down the outcome that applies. Available outcomes: 1 (active), 0 (inactive)

molecule	class name
c1ccc(Cn2nnc3c(NCC4CC4)ncnc32)cc1	0
C[C@H](CO)N1C[C@H](C)[C@@H](CN(C)Cc2ccc3c(c2)OCO3)OCc2cnnn2CCCC1=O	0
O=C(c1cc(=O)c2ccccc2o1)N1CCN(c2ccccc2)CC1	0
CC1(Cc2ccccc2C#N)C(=O)Nc2ccc(-c3ccc4[nH]ccc4c3)cc21 (stereo unspecified)	1
CCC(=O)Nc1ccc(C(=O)CSc2nnc(CNc3ccc(Cl)cc3)o2)cc1OC	1

Exercise: What is the recorded call for this molecule in the test? Cc1ccc2nc(CNC(=O)c3ccccc3)[nH]c2c1
Solution: 0

Exercise: Subsequent entry: CC(=O)C1=CCC(c2ccccc2)N(S(=O)(=O)c2ccc(C)cc2)C1 (stereo unspecified)
Solution: 0

Reference for the values: PubChem BioAssay AID1347076
